system: PNAG conjugates on the array (dPNAG, PNAG and intermediate levels of deacetylation); test: Neoglycoprotein (glycan) microarray binding, 816-component array; conditions: ability to bind both dPNAG and PNAG and intermediate levels of deacetylation
METRIC: PNAG Binding on Array

PNAG Binding on Array lookup needed for TG10: Antibody, HC SEQ ID NO: 3, LC SEQ ID NO: 12; primer mutations in ADI-45379 reverted to germline (antibody, V domains shown, TG10 Heavy Chain Variable Region; TG10 Light Chain Variable Region, primer mutations in ADI-45379 reverted to germline) VH: EVQLVESGGGLVQPGGSLRLSCAVSGFPFSSYWMSWVRQAPGKGLEWVANIKEDGSEKYYVDSVKGRFTISRDNAKNSLYLQMNSLRAEDTAVYYCATDPDVGLSDSWGQGTLVTVSS VL: EIVLTQSPGTLSLSPGDRATHSCRASQSVSRSYLAWYQQKPGQTPRLFIYGASNRATGIPDRFSGSGSGTYFTLTISRLEPEDFAVYYCQQYDSAPDTFGQGTRLEIK , thanks.
Yes

Moving on to the next molecule: TG10 W38A: TG10 HC W38A (SEQ ID NO: 47) with TG10 LC (SEQ ID NO: 12) (antibody, V domains shown, Site directed mutatation of TG10 HC Variable Region; TG10 Light Chain Variable Region) VH: EVQLVESGGGLVQPGGSLRLSCAVSGFPFSSYAMSWVRQAPGKGLEWVANIKEDGSEKYYVDSVKGRFTISRDNAKNSLYLQMNSLRAEDTAVYYCATDPDVGLSDSWGQGTLVTVSS VL: EIVLTQSPGTLSLSPGDRATHSCRASQSVSRSYLAWYQQKPGQTPRLFIYGASNRATGIPDRFSGSGSGTYFTLTISRLEPEDFAVYYCQQYDSAPDTFGQGTRLEIK
No
